- procedure_details: Inhibition of TLR4 expression in human monocytes
- Type: functional, cell-based
- condition_set: Monocyte
recorded_metric: IC50 (nM)
Numbers only, in nM.

Fill in the blank: the reported IC50 of CC(=O)N[C@H]1[C@H](Oc2ccc([N+](=O)[O-])cc2)O[C@H](CO)[C@@H](O)[C@@H]1O is ____.
42

---

- Tested on: RAW264.7
- procedure_details: Antiinflammatory activity in mouse RAW264.7 cells assessed as decrease in LPS-induced TNF-alpha secretion preincubated for 1 hr followed by LPS stimulation and measured after 24 hrs by ELISA
- Type: functional, cell-based
recorded_metric: pIC50
Give bare numbers, as −log10 of the molar value.

Fill in the blank: the reported pIC50 of O=S(=O)(Nc1ccc(C(F)(F)F)cc1)c1cccc2cccnc12 is ____.
5.01

---

- procedure_details: Cytotoxicity against HEK293 cells assessed as cell survival at 10 uM incubated for 16 to 24 hrs by MTT method
- Assay type: toxicity, cell-based
- condition_set: human, time 16-24 hrs, read-out: Activity
recorded_metric: viability at 10 µM

Fill in the blank: the reported viability at 10 µM of C=CC(=O)N(c1ccc(F)cc1Cl)S(=O)(=O)c1ccccc1C(=O)OC is ____.
88.5%

--- query ---
Fill in the blank: the reported viability at 10 µM of C=CC(=O)N(c1ccc(F)cc1Cl)S(=O)(=O)N1CCCCC1C(=O)OC (configuration not stated) is ____.
92.2%

---

Please respond with reported IC50 for every item in the list.
- target_of_assay: Toll-like receptor 4 (Homo sapiens)
- Sequence (O00206 whole entry): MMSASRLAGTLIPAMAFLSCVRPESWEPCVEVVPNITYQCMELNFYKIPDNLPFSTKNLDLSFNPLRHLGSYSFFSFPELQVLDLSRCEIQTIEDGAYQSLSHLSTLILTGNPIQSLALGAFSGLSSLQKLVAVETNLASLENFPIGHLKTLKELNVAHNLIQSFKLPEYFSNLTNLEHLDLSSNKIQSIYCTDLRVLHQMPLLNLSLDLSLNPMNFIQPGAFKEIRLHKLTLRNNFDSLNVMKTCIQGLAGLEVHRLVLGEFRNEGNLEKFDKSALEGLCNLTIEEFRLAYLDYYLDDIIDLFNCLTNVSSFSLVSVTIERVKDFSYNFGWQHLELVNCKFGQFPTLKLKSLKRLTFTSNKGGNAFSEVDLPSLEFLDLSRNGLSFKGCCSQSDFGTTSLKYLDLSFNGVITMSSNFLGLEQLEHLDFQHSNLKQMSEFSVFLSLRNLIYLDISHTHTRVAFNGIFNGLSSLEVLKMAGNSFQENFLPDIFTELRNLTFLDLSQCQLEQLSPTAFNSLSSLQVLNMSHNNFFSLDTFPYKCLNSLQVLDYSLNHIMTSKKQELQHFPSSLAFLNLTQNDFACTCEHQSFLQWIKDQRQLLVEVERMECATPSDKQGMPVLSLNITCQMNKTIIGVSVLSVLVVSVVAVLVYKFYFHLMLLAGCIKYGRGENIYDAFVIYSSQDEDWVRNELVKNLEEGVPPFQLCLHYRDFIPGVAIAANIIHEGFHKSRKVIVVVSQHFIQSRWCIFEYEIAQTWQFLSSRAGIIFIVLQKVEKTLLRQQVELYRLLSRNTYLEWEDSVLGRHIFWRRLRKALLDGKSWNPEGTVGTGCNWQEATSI
- procedure_details: Inhibition of LPS-stimulated TLR4 activation in HEK-Blue-hTLR4 cells assessed as reduction in SEAP release preincubated for 15 mins followed by LPS stimulation and measured after 16 hrs by microplate reader assay
- Type: cell-based
Answers are plain numbers, in µM.

Example compounds with recorded IC50:
Fill in the blank: the reported IC50 of CCCCC/C=C\C/C=C\CCCCCCC(=O)N[C@H]1[C@H](OC(=O)CCC(=O)O)O[C@H](CO)[C@@H](OC(=O)CCC(=O)O)[C@@H]1OC(=O)CCCCCCCCCCCCC is ____.
6.61

Fill in the blank: the reported IC50 of CCCCC/C=C\C/C=C\CCCCCCC(=O)N[C@H]1[C@H](OC(=O)CCC(=O)O)O[C@H](CO)[C@@H](OC(=O)CCC(=O)O)[C@@H]1OC(=O)CCCCCC/C=C\C/C=C\CCCCC is ____.
4.35

Fill in the blank: the reported IC50 of CCCCCCCCCCCCCC(=O)N[C@H]1[C@H](OC(=O)CCC(=O)O)O[C@H](CO)[C@@H](OC(=O)CCC(=O)O)[C@@H]1OC(=O)CCCCCCCCCCCCC is ____.
5.91

Give one value of IC50 per listed compound.
1. CCCCCCCC/C=C\CCCCCCC(=O)N[C@H]1[C@H](OC(=O)CCC(=O)O)O[C@H](CO)[C@@H](OC(=O)CCC(=O)O)[C@@H]1OC(=O)CCCCCC/C=C\CCCCCCCC
2. CCCCCCCCC/C=C\CCCCCCC(=O)N[C@H]1[C@H](OC(=O)CCC(=O)O)O[C@H](CO)[C@@H](OC(=O)CCC(=O)O)[C@@H]1OC(=O)CCCCCCCCCCCCC

1: 3.5; 2: 2.7
